Molecular target: T1, PSMA Fab
T1 construct: also called Anti-PSMA Fab; 006 PSMA Fab
Experiment: clonal phage ELISA on biotinylated PSMA Fab captured on neutravidin, anti-M13 HRP detection;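 also: crude clonal phage supernatants added to wells pretreated with PSMA antigen in blocking buffer or with blocking buffer only, then briefly incubated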
Where no end group is shown, it is not given here.
Would you kindly list Phage binding ELISA signal, Anti-PSMA Fab for each of these binders?

Sample IVPYCMPQWMCSGF (cysteine pairing not given here; also: fused to phage pIII, orientation and linker not given here) [Phage-3158] — what was its Phage binding ELISA signal, Anti-PSMA Fab?
2.04

Given the binder VEKLCKPEWMCMGF (cysteine pairing not given here; also: fused to phage pIII, fusion site not given here) [Phage-3169] , what is its reported Phage binding ELISA signal, Anti-PSMA Fab?
2.02

Need Phage binding ELISA signal, Anti-PSMA Fab of ADWLCRPAWMCEGL (cysteine pairing not given here; also: fused to phage pIII, fusion site not given here) [Phage-3168] , thanks.
2.02

// Phage binding ELISA signal, Anti-PSMA Fab lookup, key: QMPMCRPAWMCMGF (cysteine pairing not given here; also: fused to phage pIII, orientation and linker not given here) [Phage-3157]
2.04

Consider the binder ETALCRPLWMCDWL (cysteine pairing not given here; also: fused to phage pIII, fusion site not given here) [Phage-3162] and give its measured Phage binding ELISA signal, Anti-PSMA Fab.
2.03

Give its Phage binding ELISA signal, Anti-PSMA Fab value. Item: MDKICSPMWMCLGF (cysteine pairing not given here; also: fused to phage pIII, fusion site not given here) [Phage-3164]
2.03

Data request, read-out Phage binding ELISA signal, Anti-PSMA Fab, for WMAMCKPVWMCEGF (cysteine pairing not given here; also: fused to phage pIII, orientation and linker not given here) [Phage-3159]
2.04

Quick check: Phage binding ELISA signal, Anti-PSMA Fab of LVRVCTPMWMCQGF (cysteine pairing not given here; also: fused to phage pIII, fusion site not given here) [Phage-3166] ?
2.03

Endpoint output: Phage binding ELISA signal, Anti-PSMA Fab of NHVQCVPNWMCSGF (cysteine pairing not given here; also: fused to phage pIII, fusion site not given here) [Phage-3161] . Value?
2.03
